Would you mind telling me the reported GI50 of each entry?
System: BT-549
Assay: NCI tumour cell line growth inhibition, 48 h
Calls of active or inactive are those of the source. Rule as the data show it: active = GI50 up to about 1.1 µM and inactive = higher.

Request: I would be grateful if you could share the reported GI50 for `CC(=O)OC[C@@H](OC(C)=O)[C@H](OC(C)=O)[C@@H]1OC(C)(C)O[C@@H]1C1SCCCS1` .
Response: > 100 µM (inactive)

Request: Field entry: `Cc1cc(=O)n2nc(CSc3nnc(Sc4cc(O)ccc4O)s3)sc2n1`
Response: 39.3 µM (inactive)

Request: Field entry: COc1cc2c(cc1OC)C13CCN4CC5=CCOC(CC(=O)O)C(C5CC41)C3N2 (stereo unspecified)
Response: > 100 µM (inactive)

Request: Field entry: `Cc1cc(C)c(-n2c(-c3ccc(Br)cc3)cs/c2=N\N=C2C=C(C(C)(C)C)C(=O)C(C(C)(C)C)=C2)c(C)c1`
Response: > 100 µM (inactive)

Request: Field entry: `CNC(=S)/N=c1/sc(NC)nc2sc3c(c12)CCCC3`
Response: 47.1 µM (inactive)

Request: Field entry: `N#Cc1c(Cl)cc(C#N)n2c1nc1ccccc12`
Response: 6.12 µM (inactive)

From: ChEMBL document CHEMBL1201862
